Biological target: Androgen receptor (Homo sapiens) (UniProt P10275)
Sequence (P10275 whole entry, looked up): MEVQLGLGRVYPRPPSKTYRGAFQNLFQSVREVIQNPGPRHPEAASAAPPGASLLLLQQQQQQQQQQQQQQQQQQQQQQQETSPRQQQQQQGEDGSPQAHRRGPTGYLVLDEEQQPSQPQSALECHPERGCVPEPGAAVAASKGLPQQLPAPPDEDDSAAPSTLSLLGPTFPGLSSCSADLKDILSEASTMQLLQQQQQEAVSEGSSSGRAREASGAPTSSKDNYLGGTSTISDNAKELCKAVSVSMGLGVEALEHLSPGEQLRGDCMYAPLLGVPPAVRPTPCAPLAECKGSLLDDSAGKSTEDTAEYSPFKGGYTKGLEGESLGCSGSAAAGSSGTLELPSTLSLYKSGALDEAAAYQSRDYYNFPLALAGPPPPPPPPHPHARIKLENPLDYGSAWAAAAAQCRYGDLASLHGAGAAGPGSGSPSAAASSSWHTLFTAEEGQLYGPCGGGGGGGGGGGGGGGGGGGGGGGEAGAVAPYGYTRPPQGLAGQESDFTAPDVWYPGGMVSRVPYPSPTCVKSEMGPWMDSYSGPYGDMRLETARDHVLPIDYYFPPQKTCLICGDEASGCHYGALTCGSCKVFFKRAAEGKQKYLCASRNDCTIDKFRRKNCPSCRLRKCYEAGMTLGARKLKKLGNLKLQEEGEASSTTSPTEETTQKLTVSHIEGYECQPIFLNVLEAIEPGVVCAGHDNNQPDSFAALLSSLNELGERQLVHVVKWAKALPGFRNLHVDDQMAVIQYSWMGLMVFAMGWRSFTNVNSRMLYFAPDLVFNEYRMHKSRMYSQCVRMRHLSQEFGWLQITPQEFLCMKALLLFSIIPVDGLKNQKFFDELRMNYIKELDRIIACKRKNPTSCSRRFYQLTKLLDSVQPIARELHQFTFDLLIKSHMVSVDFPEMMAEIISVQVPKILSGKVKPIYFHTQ
Test: qHTS assay to identify small molecule agonists of the androgen receptor (AR) signaling pathway using the MDA cell line (AID 743040; also: nearly all actives have a fitted effect of over 20% in size)
Conditions: MDA-kb2 AR-luc cells, MMTV luciferase, 16 h; series mostly up to 70.3 µM
Activity calls are given as the source filed them. Calls follow the shape of the dose curve; as a rule, active = well fitted activation curve with a large enough effect in the repeat runs; inconclusive = weak or mixed curves; inactive = flat fitted curve, though single readings scatter.
Choose the fitting class; nothing outside active, inactive is accepted.

Some solved cases for reference:
INSERT INTO assay_data (compound, label_class) VALUES
  ('Clc1ccc2nsnc2c1NC1=NCCN1', 'active'),
  ('CCCCCCCCCCCCCC[P+](CCCC)(CCCC)CCCC (tested in a mixture with another compound)', 'inactive'),
  ('O=C(OCC1CO1)C1CCCCC1C(=O)OCC1CO1 (configuration not stated)', 'inactive'),
  ('CC(C)=CCOc1ccc(/C=C/C(=O)c2ccc(OCC=C(C)C)cc2OCC(=O)O)cc1', 'inactive');

Request: GET /call?item= O=C(Oc1ccccc1)c1ccccc1C(=O)Oc1ccccc1 returns the recorded outcome of this test.
Result: inactive
